Tested on: Schoenoplectiella juncoides
Assay comment: Post-emergence herbicide activity against Schoenoplectiella juncoides under greenhouse condition at 1 g a.i/a treated at one-leaf stage measured after 3 weeks
Assay type: functional
// values below are reported Activity
API: value field is a number in %; no unit string.

Here is how some molecules turned out for Activity.
COC(=O)C1(c2ccccc2)C(=O)N(C(C)(C)c2ccc3ccccc3c2)C=C1C (stereo not given) :: 0
COC(=O)C1(c2ccccc2)C(=O)N(C(C)(C)c2cc(Cl)cc(Cl)c2)C=C1C#N (stereo not given) :: 0
COC(=O)C1(c2ccccc2)C(=O)N(C(C)(C)c2cnc3ccccc3c2)C=C1C (stereo not given) :: 0
COC(=O)C1(c2ccccc2)C(=O)N(C(C)(C)c2cc(F)cc(F)c2)C=C1C (stereo not given) :: 87.6

Per the record, COC(=O)C1(c2ccccc2)C(=O)N(C(C)(C)c2cc(Cl)cc(Cl)c2)C=C1C (stereo not given) has Activity of 0.1

Values compiled from ChEMBL document CHEMBL3044903.
